- ASSAY_EXPLANATION: Pharmacokinetic evaluation after intravenous or gavage administration to rats
- Assay type: in vivo, SD rats
- SETTINGS: SD, rat, in vivo, iv, 1 mg/kg
Task for the reader: assign each of the following compounds its reported clearance.
// return numeric value only (unit: mL/min/kg, not printed)

Query: Give the value of clearance reported for the following: Cc1ccc(-n2nccn2)c(C(=O)N2CC3CN(c4ncc5cc(F)ccc5n4)CC3C2)c1 (centres unmarked)
Reply: 40.1

Query: Kindly indicate its recorded clearance. Item: Cc1ccc(-n2nccn2)c(C(=O)N2CC3CN(c4nc5cc(Cl)ccc5o4)CC3C2)c1 (centres unmarked)
Reply: 40

Query: Answer with reported clearance of O=C(c1c(F)cccc1-n1nccn1)N1CC2CN(c3nc4cc(Cl)ccc4o3)CC2C1 (centres unmarked)
Reply: 26.7

Query: Please give the documented clearance of O=C(c1ccccc1-n1nccn1)N1CC2CN(c3ncc4cc(F)ccc4n3)CC2C1 (centres unmarked)
Reply: 20.1

Query: For the compound O=C(c1ccccc1-n1nccn1)N1CC2CN(c3nc4cc(Cl)ccc4o3)CC2C1 (centres unmarked) , give its measured clearance value.
Reply: 30.4
